# measurement.protocol: Mean plasma and tumor concentration, 7-day study in SCID mice
# Type: in vivo
# experimental.setup: mouse, tumor, po, female SCID mice, 100 mg/kg P.O. BID, read-out: Mean Tumor Conc
reported.endpoint: concentration at 7 day (ng/g)
Report the value in ng/g with no unit label.

Task item: Could you share which concentration at 7 day value was measured for COc1cc(C)[nH]c(=O)c1CNC(=O)c1c(C)n(C(C)C2CCN(C)C(C(F)(F)F)C2)c2ccccc12 (single isomer, unassigned) ?
Reply: 451

====

Measured IC50 of individual entries
# target: PRC2 containing wt EZH2 (Homo sapiens, UniProt Q15910)
# Construct: made in house
# Sequence (Q15910 whole entry): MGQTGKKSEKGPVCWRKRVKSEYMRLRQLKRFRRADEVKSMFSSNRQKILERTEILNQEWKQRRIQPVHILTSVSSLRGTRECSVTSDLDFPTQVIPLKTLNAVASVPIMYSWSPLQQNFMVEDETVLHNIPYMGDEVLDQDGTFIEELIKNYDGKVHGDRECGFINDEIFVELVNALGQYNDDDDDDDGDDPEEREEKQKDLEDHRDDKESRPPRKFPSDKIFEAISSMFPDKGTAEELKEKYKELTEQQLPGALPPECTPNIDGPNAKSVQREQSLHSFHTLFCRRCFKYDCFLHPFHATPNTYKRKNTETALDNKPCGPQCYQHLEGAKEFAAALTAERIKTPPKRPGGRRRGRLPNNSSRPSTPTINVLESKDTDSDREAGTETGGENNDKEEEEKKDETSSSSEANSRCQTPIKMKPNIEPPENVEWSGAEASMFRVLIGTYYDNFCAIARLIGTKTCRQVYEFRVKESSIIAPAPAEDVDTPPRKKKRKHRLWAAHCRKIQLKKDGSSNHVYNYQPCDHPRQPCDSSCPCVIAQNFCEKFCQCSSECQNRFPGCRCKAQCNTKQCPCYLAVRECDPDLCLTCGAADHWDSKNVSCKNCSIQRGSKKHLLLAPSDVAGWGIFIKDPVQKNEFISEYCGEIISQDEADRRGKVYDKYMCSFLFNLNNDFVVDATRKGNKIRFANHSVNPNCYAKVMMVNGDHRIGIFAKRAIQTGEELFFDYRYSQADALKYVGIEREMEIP
# Sequence (O75530 whole entry partner): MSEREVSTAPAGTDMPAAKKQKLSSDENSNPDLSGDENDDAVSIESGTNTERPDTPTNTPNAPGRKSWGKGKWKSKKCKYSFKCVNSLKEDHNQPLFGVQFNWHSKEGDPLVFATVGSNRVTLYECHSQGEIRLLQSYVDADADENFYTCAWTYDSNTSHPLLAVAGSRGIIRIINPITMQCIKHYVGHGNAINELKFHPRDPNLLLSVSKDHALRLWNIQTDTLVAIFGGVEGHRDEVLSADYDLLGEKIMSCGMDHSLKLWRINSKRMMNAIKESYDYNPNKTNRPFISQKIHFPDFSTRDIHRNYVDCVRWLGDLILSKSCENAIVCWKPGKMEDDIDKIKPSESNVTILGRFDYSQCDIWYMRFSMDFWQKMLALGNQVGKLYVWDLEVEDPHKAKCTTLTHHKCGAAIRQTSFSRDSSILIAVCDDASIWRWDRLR
# Sequence (Q15022 whole entry partner): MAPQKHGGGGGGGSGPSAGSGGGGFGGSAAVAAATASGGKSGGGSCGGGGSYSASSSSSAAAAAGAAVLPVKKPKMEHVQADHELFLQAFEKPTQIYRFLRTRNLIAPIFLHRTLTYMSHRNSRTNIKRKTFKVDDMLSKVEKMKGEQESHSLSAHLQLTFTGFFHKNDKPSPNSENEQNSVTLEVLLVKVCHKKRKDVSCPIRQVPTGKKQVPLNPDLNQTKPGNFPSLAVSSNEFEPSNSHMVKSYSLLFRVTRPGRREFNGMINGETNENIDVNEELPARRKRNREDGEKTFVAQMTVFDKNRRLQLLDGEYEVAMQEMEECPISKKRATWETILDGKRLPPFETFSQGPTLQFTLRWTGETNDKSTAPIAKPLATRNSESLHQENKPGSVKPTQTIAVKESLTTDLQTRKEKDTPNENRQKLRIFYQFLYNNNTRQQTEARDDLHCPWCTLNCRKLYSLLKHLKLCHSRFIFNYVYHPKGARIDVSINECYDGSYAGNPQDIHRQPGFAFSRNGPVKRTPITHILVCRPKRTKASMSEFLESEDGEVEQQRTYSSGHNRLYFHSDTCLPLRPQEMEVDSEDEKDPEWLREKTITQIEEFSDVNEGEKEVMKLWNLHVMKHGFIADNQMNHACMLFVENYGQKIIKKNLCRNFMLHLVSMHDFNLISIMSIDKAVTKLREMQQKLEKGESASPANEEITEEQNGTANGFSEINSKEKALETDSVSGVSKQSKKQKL
# Sequence (Q09028 whole entry partner): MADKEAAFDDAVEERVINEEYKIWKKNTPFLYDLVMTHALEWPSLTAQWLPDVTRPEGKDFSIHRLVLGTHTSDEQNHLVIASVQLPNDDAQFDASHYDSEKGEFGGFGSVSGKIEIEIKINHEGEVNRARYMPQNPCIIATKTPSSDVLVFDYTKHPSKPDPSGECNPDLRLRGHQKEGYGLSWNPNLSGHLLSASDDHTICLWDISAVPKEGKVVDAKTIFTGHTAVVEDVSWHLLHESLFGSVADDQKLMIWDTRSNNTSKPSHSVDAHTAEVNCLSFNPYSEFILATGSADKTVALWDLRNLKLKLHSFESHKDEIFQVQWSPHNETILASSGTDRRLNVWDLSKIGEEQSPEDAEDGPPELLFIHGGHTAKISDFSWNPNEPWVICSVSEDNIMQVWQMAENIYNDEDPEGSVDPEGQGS
# Sequence (Q6ZN18 whole entry partner): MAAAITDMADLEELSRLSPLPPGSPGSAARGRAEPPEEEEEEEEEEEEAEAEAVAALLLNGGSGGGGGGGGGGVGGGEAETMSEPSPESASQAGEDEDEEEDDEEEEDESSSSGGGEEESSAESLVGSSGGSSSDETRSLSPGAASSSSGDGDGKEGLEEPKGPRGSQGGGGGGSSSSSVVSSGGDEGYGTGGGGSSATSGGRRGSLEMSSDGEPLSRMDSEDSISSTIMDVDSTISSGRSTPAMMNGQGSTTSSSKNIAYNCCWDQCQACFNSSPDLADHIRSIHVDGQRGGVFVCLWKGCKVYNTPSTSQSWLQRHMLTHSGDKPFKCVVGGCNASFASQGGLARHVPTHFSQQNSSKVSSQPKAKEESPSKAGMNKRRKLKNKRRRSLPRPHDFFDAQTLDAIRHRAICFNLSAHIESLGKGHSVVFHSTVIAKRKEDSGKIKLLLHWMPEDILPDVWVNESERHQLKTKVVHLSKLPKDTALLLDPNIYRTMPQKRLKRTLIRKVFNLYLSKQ
# measurement.protocol: EZH2 pep BSA Brij 4.0 LowE (IC50): 3H-SAM incorporation into biotinylated H3 peptide
# Format: biochemical
# experimental.setup: EZH2 pep BSA Brij 4.0 LowE (IC50), 20 pM PRC2 wt EZH2, 0.9 μM 3H-SAM, biotinylated H3 peptide substrate, 2 μM H3K27me3 activating peptide

A selection of reference data follows.
# compound, IC50
measured = [
    ("COc1cc(C)[nH]c(=O)c1CNC(=O)c1c(C)n(C(C)C2CCN(CC(F)F)C(C)C2)c2ccccc12 (single isomer, unassigned) [Compound 40]", "< 100 nM"),
    ("COc1cc(C)[nH]c(=O)c1CNC(=O)c1c(C)n(C(C)C2CCN(CC(C)(F)F)C(C)C2)c2ccccc12 (stereo not drawn) [Compound 72]", "100 to 1000 nM"),
]

Task item: Could you share which IC50 value was measured for COc1cc(C)[nH]c(=O)c1CNC(=O)c1c(C)n(C(C)C2CCNC(CC(F)(F)F)C2)c2ccccc12 (stereo not drawn) [Compound 89] ?
Reply: < 100 nM
